- TEST: in vitro
- TEST PARAMETERS: human, hela cells, % viability
PROPERTY NAME: viability at 28.5 h, 10 µM (%)

[[record]]
molecule = "O=C(NCCOc1cccc(Cl)c1Cl)c1ccccc1-c1ccccc1"
property_name = "viability at 28.5 h, 10 µM"
number = 40.6

[[record]]
molecule = "CCCS(=O)(=O)Nc1cccc2[nH]ccc12"
property_name = "viability at 28.5 h, 10 µM"
number = 97.5

[[record]]
molecule = "O=C(CSc1nnc(CN2CCOCC2)n1-c1ccc(Cl)cc1)N1CCN(c2ccccc2)CC1"
property_name = "viability at 28.5 h, 10 µM"
number = 96.9

[[record]]
molecule = "O=C1Nc2ccc([N+](=O)[O-])cc2C1(O)N1CCCCC1 (stereo not shown)"
property_name = "viability at 28.5 h, 10 µM"
number = 80.6

[[record]]
molecule = "Cc1cc(C)nc(N2CCC(CC(=O)N3CCCCC3CN3CCCC3)CC2)n1 (stereo not shown)"
property_name = "viability at 28.5 h, 10 µM"
number = 95.6

[[record]]
molecule = "O=C1N[C@@H]2CCN(Cc3cnccn3)C[C@H]2C/C=C/CC2(CCOCC2)C(=O)N[C@H]1Cc1ccccc1"
property_name = "viability at 28.5 h, 10 µM"
number = 97.3

[[record]]
molecule = "CC(C)C(=O)N1CCCC(c2cc3cccnc3[nH]2)C1 (stereo not shown)"
property_name = "viability at 28.5 h, 10 µM"
number = 96.4

[[record]]
molecule = "CC(C)[C@H](CO)Nc1nccnc1-c1ccncc1"
property_name = "viability at 28.5 h, 10 µM"
number = 91.9

[[record]]
molecule = "CC(C)(C)c1cnc(C(=O)NC2CCCN(c3ncccn3)C2)o1 (stereo not shown)"
property_name = "viability at 28.5 h, 10 µM"
number = 92.3

[[record]]
molecule = "Cc1ccc(NC(=O)C2CN(S(=O)(=O)c3ccccc3)CCN2S(=O)(=O)c2ccccc2)c(C)c1 (stereo not shown)"
property_name = "viability at 28.5 h, 10 µM"
number = 83.8

[[record]]
molecule = "CCc1nnc(NS(=O)(=O)c2ccc(NC(=O)c3ccc(Cl)cc3Cl)cc2)s1"
property_name = "viability at 28.5 h, 10 µM"
number = 88.5

[[record]]
molecule = "Cc1onc(-c2ccccc2)c1C(=O)Nc1ccc(N2CCNCC2)c2ccccc12 [CBK038942T]"
property_name = "viability at 28.5 h, 10 µM"
number = 87

[[record]]
molecule = "O=[N+]([O-])c1cc2c(cc1C(Nc1ccccn1)c1cc(Cl)c3cccnc3c1O)OCO2 (stereo not shown)"
property_name = "viability at 28.5 h, 10 µM"
number = 83

[[record]]
molecule = "CN1CCc2c(sc3c2C(=O)NC(/C=C\\c2ccc([N+](=O)[O-])cc2)N3)C1 (stereo not shown)"
property_name = "viability at 28.5 h, 10 µM"
number = 86.3

[[record]]
molecule = "COc1ncc(-c2cncc(Nc3cccc(C#N)c3)n2)c(OC)n1"
property_name = "viability at 28.5 h, 10 µM"
number = 89.7

[[record]]
molecule = "CC1(C)Cc2c(cnn2-c2ccccc2)C(NS(=O)(=O)C2CC2)C1 (stereo not shown)"
property_name = "viability at 28.5 h, 10 µM"
number = 102

[[record]]
molecule = "CC(C)(C)c1n[nH]c(C2CN(C(=O)CCc3cscn3)CCO2)n1 (stereo not shown)"
property_name = "viability at 28.5 h, 10 µM"
number = 89.7

[[record]]
molecule = "Cc1ccc2c(c1)CCCN2C(=O)c1cccnc1NCc1ccc2c(c1)OCO2"
property_name = "viability at 28.5 h, 10 µM"
number = 94.5

[[record]]
molecule = "O=C(Cc1c[nH]c2ccccc12)Nc1cccnc1N1CCNCC1 [CBK028265T]"
property_name = "viability at 28.5 h, 10 µM"
number = 105

[[record]]
molecule = "CCN(CC)C(=O)Cc1ccc(NC(=O)NCc2cnn(C)c2)cc1"
property_name = "viability at 28.5 h, 10 µM"
number = 111

[[record]]
molecule = "CC(=O)N1CCN(CC(O)Cn2c3ccccc3c3ccccc32)CC1 (stereo not shown)"
property_name = "viability at 28.5 h, 10 µM"
number = 102

[[record]]
molecule = "CN1CCN(Cc2c(C(C)(C)C)[nH]c3ncccc23)CC1"
property_name = "viability at 28.5 h, 10 µM"
number = 104

[[record]]
molecule = "O=C(Nc1nccs1)c1cccc(Cl)c1Cl"
property_name = "viability at 28.5 h, 10 µM"
number = 112

[[record]]
molecule = "N#CC1CCCc2c1[nH]c1ccccc21 (stereo not shown)"
property_name = "viability at 28.5 h, 10 µM"
number = 74.9

[[record]]
molecule = "CCC(=O)Nc1ccc(-c2csc(N3CCCC(C)C3)n2)cc1 (stereo not shown)"
property_name = "viability at 28.5 h, 10 µM"
number = 83.3

[[record]]
molecule = "COc1ccccc1CC(=O)Nc1ccc(O)cc1C(=O)O"
property_name = "viability at 28.5 h, 10 µM"
number = 105

[[record]]
molecule = "O=C(CSCc1nc2ccccc2[nH]1)Nc1cccc(C(F)(F)F)c1"
property_name = "viability at 28.5 h, 10 µM"
number = 101

[[record]]
molecule = "CC(=O)OC(C(=O)O)C(OC(C)=O)C(=O)O (stereo not shown)"
property_name = "viability at 28.5 h, 10 µM"
number = 95.5

[[record]]
molecule = "COc1ccc2cc(CN(CCNC(=O)OC(C)(C)C)C(=O)NC3CCCCC3)c(=O)[nH]c2c1"
property_name = "viability at 28.5 h, 10 µM"
number = 101

[[record]]
molecule = "CC(=O)c1ccc(NC(=O)c2cccc(S(=O)(=O)N3CCCCC3)c2)cc1"
property_name = "viability at 28.5 h, 10 µM"
number = 96.4

[[record]]
molecule = "COc1cc(C2NC(=S)NC(c3ccccc3)=C2C(=O)c2ccccc2)cc(I)c1OCCO (stereo not shown)"
property_name = "viability at 28.5 h, 10 µM"
number = 86.7

[[record]]
molecule = "O=C(/C=C\\c1cn(-c2ccccc2)nc1-c1cccc([N+](=O)[O-])c1)n1nnc2ccccc21"
property_name = "viability at 28.5 h, 10 µM"
number = 104

[[record]]
molecule = "Cc1ccc(C(NC(=O)C2CCN(Cc3ccc(Cl)cc3)CC2)c2ccccn2)cc1 (stereo not shown)"
property_name = "viability at 28.5 h, 10 µM"
number = 103

[[record]]
molecule = "NC(=O)N/N=C/COc1cccc(C(F)(F)F)c1"
property_name = "viability at 28.5 h, 10 µM"
number = 102

[[record]]
molecule = "O=C(O)C1CC=CCC1C(=O)NCc1ccncc1 (stereo not shown)"
property_name = "viability at 28.5 h, 10 µM"
number = 89.2

[[record]]
molecule = "Cc1ccc(Cl)cc1N1CCN(CC(O)COCc2ccc3c(c2)OCO3)CC1 (stereo not shown) [CBK278308C]"
property_name = "viability at 28.5 h, 10 µM"
number = 106

[[record]]
molecule = "COC(=O)c1c(NC(=O)C2CC=CCC2C(=O)O)sc2c1CCC(c1ccccc1)C2 (stereo not shown)"
property_name = "viability at 28.5 h, 10 µM"
number = 94.8

